Tested on: Fusobacterium nucleatum
ASSAY INFO: Antibacterial activity against Fusobacterium nucleatum by CLSI agar dilution method
Format: functional
Lab note: compare MIC90 with 4 µg/mL, writing true (1) if less and false (0) if equal or more.

>>> assigned_label("C[C@@H](O)[C@H]1C(=O)N2C(C(=O)O)=C(S[C@@H]3CN[C@H](C(=O)Nc4cccc(C(=O)O)c4)C3)[C@H](C)[C@H]12")
"true (1)"
>>> assigned_label("CO[C@@]1(NC(=O)CSCC#N)C(=O)N2C(C(=O)O)=C(CSc3nnnn3C)CS[C@@H]21")
"true (1)"
>>> assigned_label("CCN1CCN(C(=O)N[C@@H](C(=O)N[C@@H]2C(=O)N3[C@@H]2SC(C)(C)[C@@H]3C(=O)O)c2ccccc2)C(=O)C1=O")
"false (0)"
>>> assigned_label("C[C@@H](O)[C@H]1C(=O)N2C(C(=O)O)=C(S[C@@H]3CN[C@H](C(=O)N(C)C)C3)[C@H](C)[C@H]12")
"true (1)"
>>> assigned_label("CC1(C)S[C@@H]2[C@H](NC(=O)Cc3ccccc3)C(=O)N2[C@H]1C(=O)O")
"true (1)"
